Origin of values: ChEMBL document CHEMBL4699469

# targetEntity: Cyclin-dependent kinase 1 (Homo sapiens, UniProt P06493)
# Sequence (P06493 whole entry): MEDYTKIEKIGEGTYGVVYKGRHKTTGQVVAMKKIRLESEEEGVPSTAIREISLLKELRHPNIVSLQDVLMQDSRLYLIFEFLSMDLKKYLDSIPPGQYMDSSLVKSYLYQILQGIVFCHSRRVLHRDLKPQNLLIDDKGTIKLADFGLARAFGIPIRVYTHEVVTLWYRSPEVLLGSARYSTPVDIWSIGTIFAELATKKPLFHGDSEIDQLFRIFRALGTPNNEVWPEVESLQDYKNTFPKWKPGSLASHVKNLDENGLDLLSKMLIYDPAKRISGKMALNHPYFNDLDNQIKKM
# protocolDescription: Inhibition of CDK1 in human MCF7 cells assessed as reduction in PP1alpha phosphorylation at T320 residue incubated for 6 hrs by immunoblot analysis
# Type: cell-based
assayEndpoint: IC50 (nM)
Answer with a number only, understood to be in nM.

Query (compound): CC(=O)N[C@@H]1CCC[C@H](C(=O)Nc2cc(-c3cnn4c3CC(C)(C)C4)c(Cl)cn2)C1 [ZEMIRCICLIB] ; field requested: IC50 370

* * *

# targetEntity: CDK3/Cyclin E (Homo sapiens, UniProt Q00526)
# Sequence (P24864 whole entry): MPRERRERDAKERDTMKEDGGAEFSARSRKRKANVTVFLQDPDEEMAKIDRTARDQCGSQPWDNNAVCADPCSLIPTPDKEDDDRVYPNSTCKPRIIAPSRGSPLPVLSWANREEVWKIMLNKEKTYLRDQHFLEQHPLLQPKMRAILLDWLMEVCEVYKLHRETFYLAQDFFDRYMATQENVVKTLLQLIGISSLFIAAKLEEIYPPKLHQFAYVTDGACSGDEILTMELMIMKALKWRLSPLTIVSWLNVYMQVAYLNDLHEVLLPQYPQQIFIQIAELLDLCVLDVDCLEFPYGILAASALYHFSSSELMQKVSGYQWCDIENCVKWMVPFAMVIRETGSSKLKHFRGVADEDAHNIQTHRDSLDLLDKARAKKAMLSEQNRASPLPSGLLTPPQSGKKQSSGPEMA
# Sequence (Q00526 whole entry): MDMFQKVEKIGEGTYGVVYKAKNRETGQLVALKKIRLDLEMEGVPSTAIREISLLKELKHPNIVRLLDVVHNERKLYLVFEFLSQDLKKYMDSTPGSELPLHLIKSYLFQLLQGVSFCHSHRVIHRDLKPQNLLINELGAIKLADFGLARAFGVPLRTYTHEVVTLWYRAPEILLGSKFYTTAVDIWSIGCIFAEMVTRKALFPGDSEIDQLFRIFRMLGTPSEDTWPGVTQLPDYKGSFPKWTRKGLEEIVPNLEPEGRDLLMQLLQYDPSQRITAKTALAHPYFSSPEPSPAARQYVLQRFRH
# protocolDescription: Inhibition of C-terminal His6-tagged human CDK3/N-terminal GST-tagged human cyclin E expressed in baculovirus infected Sf21 insect cells
assayEndpoint: IC50

Data request, read-out IC50, for COc1cc(F)ccc1-c1ncnc(Nc2cccc(C[S@](C)(=N)=O)c2)n1 [ATUVECICLIB] > 890 nM

* * *

Recorded IC50 for the following molecules
# targetEntity: Cyclin-dependent kinase 1 (Homo sapiens)
# protocolDescription: Inhibition of CDK1 (unknown origin)

C[C@H](CO)Nc1nc(Nc2ccc(S(N)(=O)=O)cc2)ncc1Br = 50 nM

Reported IC50 for `COc1cc(F)ccc1-c1cc(NC(=O)[C@H]2CCC[C@@H](NC(C)=O)C2)ncc1Cl` : what is it? 94 nM

* * *

# targetEntity: Glycogen synthase kinase-3 beta (Homo sapiens)
# Sequence (P49841 whole entry): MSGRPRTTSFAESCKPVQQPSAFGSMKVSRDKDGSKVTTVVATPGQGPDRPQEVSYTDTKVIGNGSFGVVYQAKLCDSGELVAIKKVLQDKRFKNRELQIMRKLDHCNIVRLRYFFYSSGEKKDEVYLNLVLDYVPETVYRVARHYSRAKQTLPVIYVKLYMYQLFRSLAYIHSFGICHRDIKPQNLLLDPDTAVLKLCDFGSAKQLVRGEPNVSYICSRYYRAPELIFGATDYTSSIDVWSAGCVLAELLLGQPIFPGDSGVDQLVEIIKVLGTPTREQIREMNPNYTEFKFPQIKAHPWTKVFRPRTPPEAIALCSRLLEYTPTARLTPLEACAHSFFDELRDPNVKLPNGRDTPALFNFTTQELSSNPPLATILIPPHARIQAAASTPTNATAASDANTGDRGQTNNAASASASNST
assayEndpoint: IC50 (nM)
Provide the reading as a plain figure in nM.

Which IC50 value belongs to `COc1cc(F)ccc1-c1ncnc(Nc2cccc(C[S@](C)(=N)=O)c2)n1` ? 87

* * *

# protocolDescription: Solubility of the compound at pH 8.7
# Assay type: physicochemical
# settings: buffer
assayEndpoint: solubility (µg/mL)
Reply numerically in µg/mL, unit not repeated.

Given the entry `CN1CC[C@H](c2c(OP(=O)(O)O)cc(O)c3c(=O)cc(-c4ccccc4Cl)oc23)[C@H](O)C1` , report its measured solubility. 9300
